Sourced from PubChem BioAssay AID720576

Assay: qHTS Assay for Inhibitors of Hepatitis C Virus (HCV): Cytotoxicity Counterscreen for Cherry-picked Compounds;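 note: 44 h compound exposure; nearly all actives have a fitted effect of over 55% in size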
Conditions: HCV host cell line cytotoxicity counterscreen; series mostly up to 41.8 µM
Procedure: Hepatitis C virus (HCV) infects about 200 million people in the world. Many infected people progress to chronic liver disease including cirrhosis with a risk of developing liver cancer. To date, there is no effective vaccine for hepatitis C. […] Cells were plated in a 1536-wel tissue culture grade plates at a final concentration of 1,000 cells/well (3 uL volume). […] The luminescence signal was read for 15 sec using the PerkinElmer ViewLux plate reader.
The list shows a part of the results. Records with an inconclusive call do not appear. Calls of active or inactive are those of the source. Calls come from the whole dose curve; as a rule, active = well fitted inhibition curve with a large enough effect; inconclusive = small, poorly fitted or top-dose-only effect; inactive = no such curve, though single readings can be large or run the other way.
Tick one outcome: active, inactive

Here's what some known entries look like.
COc1ccc(OCCNC(=O)c2cc(C3CC3)nc3c2cnn3C(C)C)cc1 :: inactive
COc1ccc(C(C(=O)NC2CCCCC2)N(C(=O)CCl)c2ccccc2Cl)cc1 (stereo unspecified) :: active
N#C/C(=C1\CCCN1)c1nc(-c2ccccc2)cs1 :: inactive
O=S(=O)([N-]c1nc2ccccc2nc1-[n+]1ccc(Cc2ccccc2)cc1)c1ccc(Br)s1 :: inactive
Cc1ccc(C)c(N2CCN(C(=O)CCCCCn3c(=S)[nH]c4ccc(N5CCOCC5)cc4c3=O)CC2)c1 :: active

From here, focus on the item given below.
Please share the test call associated with Cc1c(-c2cccc(Cl)c2)nc2ccccc2c1C(=O)OCC(=O)N(C)C1CCS(=O)(=O)C1 (stereo unspecified) .
inactive
